Test: Exposure during ipGTT in ob/ob mice
Format: in vivo
Conditions: sc
Description: Peptides were dissolved in an appropriate vehicle at a concentration in nmol/ml equivalent to the dose that was to be administered in nmol/kg so that each mouse would receive the same volume/weight of dosing solution. Male C57BL/6J-ob/ob mice (10 weeks old) were randomized into groups of 6 mice per group based on fed plasma glucose and body weight. After an overnight fast, mice were weighed and placed in the experimental lab. […]
Where a SMILES comes first, the peptide text is derived from it. [ ]: non-standard residue; d: D form. ξ: configuration not given here. Bip(2'-Et-4'-OMe) = CCc1cc(OC)ccc1-c1ccc(C[C@H](N)C(=O)O)cc1; Bip(2'-Me) = Cc1ccccc1-c1ccc(C[C@H](N)C(=O)O)cc1; αMePhe(2-F) = C[C@](N)(Cc1ccccc1F)C(=O)O; Thr(3ξ) = CC(O)[C@H](N)C(=O)O; Aib = CC(C)(N)C(=O)O
readout_kind: Exposure/dose during ipGTT in ob/ob mice
# include the unit after the value

The compound listed as CCc1cc(OC)ccc1-c1ccc(C[C@H](NC(=O)[C@H](CC(=O)O)NC(=O)[C@H](CO)NC(=O)[C@@H](NC(=O)[C@](C)(Cc2ccccc2F)NC(=O)[C@@H](NC(=O)CNC(=O)[C@H](CCC(=O)O)NC(=O)C(C)(C)NC(=O)[C@@H](N)Cc2c[nH]cn2)C(C)O)C(C)O)C(=O)N[C@@H](Cc2ccc(-c3ccccc3C)cc2)C(N)=O)cc1 (stereo partly shown) [Compound I, reference compound] (H-H[Aib]EG[Thr(3ξ)][αMePhe(2-F)][Thr(3ξ)]SD[Bip(2'-Et-4'-OMe)][Bip(2'-Me)]-NH2) has a reported Exposure/dose during ipGTT in ob/ob mice of 22 nM * h/nmol/kg
